Would you kindly list MIC for each of these compounds?
Tested on: Staphylococcus aureus
EXPERIMENT NOTES: Antimicrobial activity against Staphylococcus aureus ATCC 55804 by broth microdilution method
Form entry: value (µg/mL) — number only.

// sample Cc1cc(O)c2c(c1)[C@@H]1OC(=O)[C@H](CO)N1C1=C2C(=O)c2cccc(O[C@H]3C[C@@H](O)[C@@H](O)[C@H](C)O3)c2C1=O , its MIC was 32

// sample Cc1cc(O)c2c(c1)[C@@H]1OC(=O)CN1C1=C2C(=O)c2cccc(O[C@H]3C[C@@H](O)[C@@H](O)[C@H](C)O3)c2C1=O , its MIC was 64

// sample CC[C@H](C)[C@H]1C(=O)O[C@H]2c3cc(C)cc(O)c3C3=C(C(=O)c4c(O[C@H]5C[C@@H](O)[C@@H](O)[C@H](C)O5)cccc4C3=O)N12 , its MIC was 4

// sample CSCC[C@@H]1C(=O)O[C@H]2c3cc(C)cc(O)c3C3=C(C(=O)c4c(O[C@H]5C[C@@H](O)[C@@H](O)[C@H](C)O5)cccc4C3=O)N12 , its MIC was 64

// sample Cc1cc(O)c2c(c1)[C@@H]1OC(=O)[C@H]([C@H](C)O)N1C1=C2C(=O)c2cccc(O[C@H]3C[C@@H](O)[C@@H](O)[C@H](C)O3)c2C1=O , its MIC was 16

// sample Cc1cc(O)c2c(c1)[C@@H]1NC(=O)C[C@@H](C(=O)O)N1C1=C2C(=O)c2cccc(O[C@H]3C[C@@H](O)[C@@H](O)[C@H](C)O3)c2C1=O , its MIC was 32

// sample Cc1cc(O)c2c(c1)[C@@H]1OC(=O)[C@@H](CO)N1C1=C2C(=O)c2cccc(O[C@H]3C[C@@H](O)[C@@H](O)[C@H](C)O3)c2C1=O , its MIC was 16

// sample Cc1cc(O)c2c(c1)[C@@H]1OC(=O)[C@H](Cc3ccccc3)N1C1=C2C(=O)c2cccc(O[C@H]3C[C@@H](O)[C@@H](O)[C@H](C)O3)c2C1=O , its MIC was 16

// sample Cc1cc(O)c2c(c1)[C@@H]1OC(=O)[C@H](Cc3ccc(O)cc3)N1C1=C2C(=O)c2cccc(O[C@H]3C[C@@H](O)[C@@H](O)[C@H](C)O3)c2C1=O , its MIC was 16

// sample Cc1cc(O)c2c(c1)[C@@H]1OC(=O)[C@H](CC(C)C)N1C1=C2C(=O)c2cccc(O[C@H]3C[C@@H](O)[C@@H](O)[C@H](C)O3)c2C1=O , its MIC was 16

// sample Cc1cc(O)c2c(c1)[C@@H]1OC(=O)[C@@H]([C@H](C)O)N1C1=C2C(=O)c2cccc(O[C@H]3C[C@@H](O)[C@@H](O)[C@H](C)O3)c2C1=O , its MIC was 64
